test method notes: Human HepG2 cell viability assay in 384 well format
Format: toxicity, cell-based
Parameters: dose 125 nL, time 70.5 hour; concentration not given beside the values
measurement context: HepG2 cells, read-out: Inhibition
observable: cytotoxicity at 70.5 h (%)
Answer in %, number only, no unit symbol.

[in] Recorded cytotoxicity at 70.5 h of `CN(C)c1ccc(NC(=O)CN2CCS(=O)(=O)CC2)cn1` , please.
[out] -0.4

[in] Recorded cytotoxicity at 70.5 h of `CC(C)c1nc2c(n1C)CCN(Cc1nc(-c3ccco3)no1)C2` , please.
[out] -7.27

[in] Recorded cytotoxicity at 70.5 h of COc1ccc(F)c(NCc2cnn(C3CCS(=O)(=O)C3)c2)c1 (stereo unspecified) , please.
[out] 8.41

---

test method notes: Human HepG2 cell viability assay in 384 well format
Assay type: toxicity, cell-based
Design: dose 125 nL, time 70.5 hour; concentration not given beside the values
measurement context: HepG2 cells, read-out: Inhibition
observable: cytotoxicity at 70.5 h (%)
Answer in %, number only, no unit symbol.

Consider the following illustrative entries.
1. COc1c(CNCc2cccc(Cn3ccnc3C)c2)c(C)nn1C | 13.2
2. c1cc2nccc(CC3CCCN(Cc4c[nH]cn4)CC3)c2cn1 (stereo not given) | -0.459
3. Cc1ccsc1CNC(=O)CSc1nnc[nH]1 | -11.1

Now, please, on to the next molecule.
[in] Recorded cytotoxicity at 70.5 h of `COc1cccc(-n2cc(CN(C)Cc3ccnc(C(C)C)n3)cn2)c1` , please.
[out] -6.06

---

test method notes: Human HepG2 cell viability assay in 384 well format
Format: toxicity, cell-based
Design: dose 125 nL, time 70.5 hour; concentration not given beside the values
measurement context: HepG2 cells, read-out: Inhibition
observable: cytotoxicity at 70.5 h (%)
Answer in %, number only, no unit symbol.

[in] Recorded cytotoxicity at 70.5 h of `Cc1nsc(N2CCN(C(=O)Nc3ccc4[nH]ccc4c3)CC2)n1` , please.
[out] 1.81

[in] Recorded cytotoxicity at 70.5 h of `COCc1cc(N(C)Cc2ccccn2)nc(C(C)(C)C)n1` , please.
[out] -10.1

[in] Recorded cytotoxicity at 70.5 h of `CC(C)(C)NC(=O)N1CCC(NC(=O)Cc2cccnc2)CC1` , please.
[out] -3.09

[in] Recorded cytotoxicity at 70.5 h of CCCc1noc(CNC2CCCN(Cc3noc(C4CC4)n3)C2)n1 (configuration not stated) , please.
[out] -3.33

[in] Recorded cytotoxicity at 70.5 h of `COc1c(C)cnc(CN(C)C2CCN(C3CCOCC3)CC2)c1C` , please.
[out] -0.744

[in] Recorded cytotoxicity at 70.5 h of `CC(=O)c1c(C)nn(S(=O)(=O)c2ccc(F)cc2)c1C` , please.
[out] 1.95

[in] Recorded cytotoxicity at 70.5 h of `Cc1cc(C)n(-c2cncc(NCCNC(=O)C3CCCC3)n2)n1` , please.
[out] -9.3

---

Some compounds, each annotated with its measured cytotoxicity at 70.5 h.
test method notes: Human HepG2 cell viability assay in 384 well format
Format: toxicity, cell-based
Design: dose 125 nL, time 70.5 hour; concentration not given beside the values
measurement context: HepG2 cells, read-out: Inhibition
Answer in %, number only, no unit symbol.

Consider the following illustrative entries.
1) O=C1NCCCC12CCN(Cc1ccc(-c3ccccc3)s1)C2 (stereo not given) | 7.11
2) Fc1ccccc1CN1C[C@@H](OCc2ccncc2)[C@H]2OCCC[C@H]21 | -12.8
3) CC(c1nc(C2CC2)no1)N1CCN(c2ccc(C#N)cn2)CC1 (stereo not given) | -10.6
4) COCC1CN(C(=O)c2cccn2C)Cc2c1cnn2CC1CC1 (stereo not given) | -1.46
5) COc1ccc(CCC(=O)N2CCNCC2C(=O)N2CCOCC2)cc1 (stereo not given) | -7.95
6) CCc1nc(CN2CCCC(N(C)CCn3cccn3)C2)no1 (stereo not given) | 57.1
7) CN1CCN(C(=O)NC2CCCC2)Cc2cccnc21 | -4.32
8) Cc1cc(C)n(C2CCN(c3ncnc4sc5c(c34)CCNC5)C2)n1 (stereo not given) | -18.5

[in] Recorded cytotoxicity at 70.5 h of Cc1cc(C)c2c(c1)C(NC(=O)CSc1nnc[nH]1)CCO2 (stereo not given) , please.
[out] 10.8

[in] Recorded cytotoxicity at 70.5 h of `COC(=O)c1ccc(F)c(Cn2nc(C)cc2C)c1` , please.
[out] 4.73

[in] Recorded cytotoxicity at 70.5 h of `COc1ccccc1CC(=O)N1CCC(NCc2cccnc2)CC1` , please.
[out] 24

[in] Recorded cytotoxicity at 70.5 h of `CCOc1ccc2ccccc2c1CNCC1CCNCC1` , please.
[out] 9.2

[in] Recorded cytotoxicity at 70.5 h of Cc1ccccc1OCCN(C)C(=O)NC(C)c1nncn1C (stereo not given) , please.
[out] -6.52

[in] Recorded cytotoxicity at 70.5 h of `O=C(c1cscn1)N1CCC2(CCN(Cc3cccs3)CC2)C1` , please.
[out] -6.38

[in] Recorded cytotoxicity at 70.5 h of CCNC(=O)N1CCCC(c2noc(CC)n2)C1 (stereo not given) , please.
[out] -3.02

[in] Recorded cytotoxicity at 70.5 h of CN(C)C(=O)C1CCCN1c1ncnc2ccsc12 (stereo not given) , please.
[out] -10.1

[in] Recorded cytotoxicity at 70.5 h of Cc1nn(C)c(C)c1C1CCCN1CC(=O)N(C)c1nccs1 (stereo not given) , please.
[out] -3.66

[in] Recorded cytotoxicity at 70.5 h of CC(c1nc(C(C)(C)C)no1)N1CCC(N2CCCC2)CC1 (stereo not given) , please.
[out] 4.89

[in] Recorded cytotoxicity at 70.5 h of `CCc1c(C(=O)N2C[C@H]3CC[C@@H]2CN(c2cnccn2)C3)csc1C` , please.
[out] -6.26

[in] Recorded cytotoxicity at 70.5 h of `Cn1ncc2c(NCCOCc3ccccc3)nc(C3CCCC3)nc21` , please.
[out] -3.35

[in] Recorded cytotoxicity at 70.5 h of `CC(C)(N)c1cn(C2CCN(c3ncccc3Cl)CC2)nn1` , please.
[out] -9.17
